target: human TLR7 (Homo sapiens, UniProt Q9NYK1); construct: host or cells: HEK-Blue cells; test: TLR7 inhibition reporter assay (HEK-Blue cells, SEAP reporter, gardiquimod stimulation); assay type: cell-based; conditions: TLR7 IC50, HEK-Blue cells overexpressing human TLR7, SEAP reporter, gardiquimod 7.5 μM
Sequence (Q9NYK1 27-1049): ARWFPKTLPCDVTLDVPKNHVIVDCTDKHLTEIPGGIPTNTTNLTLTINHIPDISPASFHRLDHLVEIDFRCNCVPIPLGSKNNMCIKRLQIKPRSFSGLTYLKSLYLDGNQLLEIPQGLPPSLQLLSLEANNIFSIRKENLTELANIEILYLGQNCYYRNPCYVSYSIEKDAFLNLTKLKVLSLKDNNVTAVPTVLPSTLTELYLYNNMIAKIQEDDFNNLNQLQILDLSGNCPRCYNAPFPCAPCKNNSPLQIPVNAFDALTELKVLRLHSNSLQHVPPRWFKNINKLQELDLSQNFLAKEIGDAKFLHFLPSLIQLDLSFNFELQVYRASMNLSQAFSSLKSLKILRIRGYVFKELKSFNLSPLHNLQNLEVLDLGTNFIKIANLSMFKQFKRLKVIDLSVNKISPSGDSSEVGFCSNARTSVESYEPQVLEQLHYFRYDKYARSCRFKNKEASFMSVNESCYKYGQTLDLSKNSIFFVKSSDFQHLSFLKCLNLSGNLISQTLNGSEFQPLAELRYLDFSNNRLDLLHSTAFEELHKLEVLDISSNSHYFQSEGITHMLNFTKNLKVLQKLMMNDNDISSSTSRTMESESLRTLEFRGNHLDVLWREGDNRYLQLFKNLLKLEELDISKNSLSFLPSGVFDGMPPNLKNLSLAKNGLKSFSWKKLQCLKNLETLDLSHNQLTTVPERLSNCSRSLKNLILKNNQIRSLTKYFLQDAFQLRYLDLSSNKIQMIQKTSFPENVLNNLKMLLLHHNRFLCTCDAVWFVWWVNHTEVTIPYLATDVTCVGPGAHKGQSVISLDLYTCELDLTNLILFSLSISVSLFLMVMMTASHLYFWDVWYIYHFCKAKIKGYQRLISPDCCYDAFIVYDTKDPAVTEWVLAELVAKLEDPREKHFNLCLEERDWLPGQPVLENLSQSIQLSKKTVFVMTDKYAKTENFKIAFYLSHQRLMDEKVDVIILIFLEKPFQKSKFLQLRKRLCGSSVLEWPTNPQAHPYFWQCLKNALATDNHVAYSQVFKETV
Test readout: IC50 (nM)
Number in nM, nothing else.

get_value(item= Cc1c(-c2[nH]c3sc(CN4CC5(C4)CS(=O)(=O)C5)nc3c2C(C)C)cn2ncnc2c1C , readout=IC50) returns 26.9

====

Entries and their pIC50 values follow.
target: UniProt:Q9NR96; test: TLR9 inhibition reporter assay (HEK-Blue cells, SEAP reporter, ODN2006 stimulation); conditions: HEK-Blue cells overexpressing human TLR9, SEAP reporter, ODN2006 5 nM
Entry type: numeric. Quantity: pIC50, the -log10 of concentration in molar units.

Solved entries:
Cc1c(-c2[nH]c3sc(C4CCC(N(C)C(C)C)CC4)nc3c2C(C)C)cn(C)c(=O)c1C (single isomer, unassigned) [Example 262]; 4.74
Cc1c(-c2[nH]c3sc(C4CCC(NCC5(S(C)(=O)=O)CC5)CC4)nc3c2C(C)C)cn(C)c(=O)c1C (single isomer, unassigned) [Example 257]; 4.46
Cc1c(-c2[nH]c3sc(N4CCN(CC5CCOCC5)C[C@H]4C)nc3c2C(C)C)cn2ncnc2c1C [Example 317]; 4.35
Cc1c(-c2[nH]c3sc(C(=O)NCCC4CCN(C)CC4)nc3c2C(C)C)cn2ncnc2c1C [Example 381]; 5.23
Cc1c(-c2[nH]c3sc(C(=O)NC4CCC(N(C)C)CC4)nc3c2C(C)C)cn2ncnc2c1C (single isomer, unassigned) [Example 369]; 4.33

get_value(item= Cc1c(-c2[nH]c3sc(C4CCC(NCC5(S(C)(=O)=O)CC5)CC4)nc3c2C(C)C)cn(C)c(=O)c1C (single isomer, unassigned) [Example 258] , readout=pIC50) returns 4.53

get_value(item= CCN(C)C1CCC(c2nc3c(C(C)C)c(-c4cc(C)c5ncnn5c4)[nH]c3s2)CC1 (single isomer, unassigned) [Example 132] , readout=pIC50) returns 5.67

====

Biological target: human TLR9 (Homo sapiens, UniProt Q9NR96)
Sequence (Q9NR96 26-1032): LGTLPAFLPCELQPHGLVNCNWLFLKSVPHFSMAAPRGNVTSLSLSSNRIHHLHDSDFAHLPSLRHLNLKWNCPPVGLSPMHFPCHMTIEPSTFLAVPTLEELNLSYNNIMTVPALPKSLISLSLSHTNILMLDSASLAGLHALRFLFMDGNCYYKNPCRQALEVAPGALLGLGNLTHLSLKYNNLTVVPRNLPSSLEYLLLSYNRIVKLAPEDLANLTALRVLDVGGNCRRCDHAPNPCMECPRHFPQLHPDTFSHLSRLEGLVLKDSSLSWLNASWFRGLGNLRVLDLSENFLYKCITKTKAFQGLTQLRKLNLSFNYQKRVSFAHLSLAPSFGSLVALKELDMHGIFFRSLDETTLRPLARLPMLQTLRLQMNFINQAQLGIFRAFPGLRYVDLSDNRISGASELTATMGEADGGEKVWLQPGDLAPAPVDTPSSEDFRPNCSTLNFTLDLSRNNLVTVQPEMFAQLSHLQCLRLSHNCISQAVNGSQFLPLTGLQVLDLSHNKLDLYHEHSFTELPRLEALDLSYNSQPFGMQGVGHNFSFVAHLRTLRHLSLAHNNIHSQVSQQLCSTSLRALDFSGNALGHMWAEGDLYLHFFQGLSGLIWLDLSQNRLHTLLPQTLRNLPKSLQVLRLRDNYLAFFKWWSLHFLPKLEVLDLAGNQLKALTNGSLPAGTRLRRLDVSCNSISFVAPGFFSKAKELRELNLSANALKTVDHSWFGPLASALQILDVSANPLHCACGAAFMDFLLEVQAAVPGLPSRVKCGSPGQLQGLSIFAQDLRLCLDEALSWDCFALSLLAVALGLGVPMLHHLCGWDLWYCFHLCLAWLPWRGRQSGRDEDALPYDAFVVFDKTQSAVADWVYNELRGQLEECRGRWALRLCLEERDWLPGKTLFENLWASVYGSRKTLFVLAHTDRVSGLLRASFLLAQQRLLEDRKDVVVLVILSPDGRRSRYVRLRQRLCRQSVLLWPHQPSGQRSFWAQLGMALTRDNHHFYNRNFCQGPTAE
Experiment: TLR9 inhibition reporter assay (HEK-Blue cells, SEAP reporter, ODN2006 stimulation)
Conditions: HEK-Blue cells overexpressing human TLR9, SEAP reporter, ODN2006 5 nM
Test readout: pIC50
Entry type: numeric. Quantity: pIC50, the -log10 of concentration in molar units.

Cc1c(-c2[nH]c3sc(C4CCC(NCC(N)=O)CC4)nc3c2C(C)C)cn2ncnc2c1C (stereo not shown) [Example 211]; 4.85
Cc1c(-c2[nH]c3sc(C4CCC(NC(C)C)CC4)nc3c2C(C)C)cn(C)c(=O)c1C (single isomer, unassigned) [Example 254]; 4.54
COc1cc(-c2[nH]c3sc(C4CCC(N5CCC6(CC5)COC6)CC4)nc3c2C(C)C)cn2ncnc12 (single isomer, unassigned) [Example 113]; 5.11

// returns pIC50 for COc1cc(-c2[nH]c3sc(C4CCC(N5[C@@H]6CC[C@H]5COC6)CC4)nc3c2C(C)C)cn2ncnc12 (single isomer, unassigned) [Example 104] with human TLR9 (Homo sapiens, UniProt Q9NR96); value = 5.25

// returns pIC50 for Cc1c(-c2[nH]c3sc(C4CCC(N5CC(F)C5)CC4)nc3c2C(C)C)cn(C)c(=O)c1C (single isomer, unassigned) [Example 265] with human TLR9 (Homo sapiens, UniProt Q9NR96); value = 4.32

// returns pIC50 for COc1cc(-c2[nH]c3sc(C4CCC(N5CC(OC)C5)CC4)nc3c2C(C)C)cn2ncnc12 (single isomer, unassigned) [Example 122] with human TLR9 (Homo sapiens, UniProt Q9NR96); value = 5.03

// returns pIC50 for Cc1c(-c2[nH]c3sc(N4CC5(CN(CC(C)(C)O)C5)C4)nc3c2C(C)C)cn2ncnc2c1C [Example 303] with human TLR9 (Homo sapiens, UniProt Q9NR96); value = 4.58

// returns pIC50 for Cc1c(-c2[nH]c3sc(CNCC4(S(C)(=O)=O)CC4)nc3c2C(C)C)cn2ncnc2c1C [Example 405] with human TLR9 (Homo sapiens, UniProt Q9NR96); value = 4.42

// returns pIC50 for COc1cc(-c2[nH]c3sc(C4CCC(NCC(C)(C)O)CC4)nc3c2C(C)C)cn2ncnc12 (single isomer, unassigned) [Example 85] with human TLR9 (Homo sapiens, UniProt Q9NR96); value = 5.16

// returns pIC50 for Cc1c(-c2[nH]c3sc(C(=O)N4CCS(=O)(=O)CC4)nc3c2C(C)C)cn2ncnc2c1C [Example 373] with human TLR9 (Homo sapiens, UniProt Q9NR96); value = 4.38

// returns pIC50 for Cc1c(-c2[nH]c3sc(C4CCC(N5CC(F)(F)C5)CC4)nc3c2C(C)C)cn2ncnc2c1C (single isomer, unassigned) [Example 219] with human TLR9 (Homo sapiens, UniProt Q9NR96); value = 4.33

====

molecular target: human TLR9 (Homo sapiens, UniProt Q9NR96); assay: TLR9 inhibition reporter assay (HEK-Blue cells, SEAP reporter, ODN2006 stimulation); conditions: HEK-Blue cells overexpressing human TLR9, SEAP reporter, ODN2006 5 nM
Entries and their IC50 values follow.
Number in µM, nothing else.

Solved entries:
CCN(C)C1CCC(c2nc3c(C(C)C)c(-c4cn(C)c(=O)c(C)c4C)[nH]c3s2)CC1 (single isomer, unassigned) [Example 247]; 42.5
COc1cc(-c2[nH]c3sc(C4CCC(N(C)C(C)C)CC4)nc3c2C(C)C)cn2ncnc12 (single isomer, unassigned) [Example 88]; 4.45

get_value(item= CNCC(=O)N1C[C@H](C)N(c2nc3c(C(C)C)c(-c4cn5ncnc5c(C)c4C)[nH]c3s2)C[C@H]1C , readout=IC50) returns 5.22

get_value(item= Cc1cc(-c2[nH]c3sc(N4CCNC[C@H]4C)nc3c2C(C)C)cn2ncnc12 , readout=IC50) returns 18.8

====

target: human TLR8 (Homo sapiens); construct: host or cells: HEK-Blue cells; assay: TLR8 inhibition reporter assay (HEK-Blue cells, SEAP reporter, R848 stimulation); type: cell-based; settings: HEK-Blue cells overexpressing human TLR8, SEAP reporter, R848 15.9 μM; read-out: TLR8 IC50
Sequence (Q9NR97 27-1041): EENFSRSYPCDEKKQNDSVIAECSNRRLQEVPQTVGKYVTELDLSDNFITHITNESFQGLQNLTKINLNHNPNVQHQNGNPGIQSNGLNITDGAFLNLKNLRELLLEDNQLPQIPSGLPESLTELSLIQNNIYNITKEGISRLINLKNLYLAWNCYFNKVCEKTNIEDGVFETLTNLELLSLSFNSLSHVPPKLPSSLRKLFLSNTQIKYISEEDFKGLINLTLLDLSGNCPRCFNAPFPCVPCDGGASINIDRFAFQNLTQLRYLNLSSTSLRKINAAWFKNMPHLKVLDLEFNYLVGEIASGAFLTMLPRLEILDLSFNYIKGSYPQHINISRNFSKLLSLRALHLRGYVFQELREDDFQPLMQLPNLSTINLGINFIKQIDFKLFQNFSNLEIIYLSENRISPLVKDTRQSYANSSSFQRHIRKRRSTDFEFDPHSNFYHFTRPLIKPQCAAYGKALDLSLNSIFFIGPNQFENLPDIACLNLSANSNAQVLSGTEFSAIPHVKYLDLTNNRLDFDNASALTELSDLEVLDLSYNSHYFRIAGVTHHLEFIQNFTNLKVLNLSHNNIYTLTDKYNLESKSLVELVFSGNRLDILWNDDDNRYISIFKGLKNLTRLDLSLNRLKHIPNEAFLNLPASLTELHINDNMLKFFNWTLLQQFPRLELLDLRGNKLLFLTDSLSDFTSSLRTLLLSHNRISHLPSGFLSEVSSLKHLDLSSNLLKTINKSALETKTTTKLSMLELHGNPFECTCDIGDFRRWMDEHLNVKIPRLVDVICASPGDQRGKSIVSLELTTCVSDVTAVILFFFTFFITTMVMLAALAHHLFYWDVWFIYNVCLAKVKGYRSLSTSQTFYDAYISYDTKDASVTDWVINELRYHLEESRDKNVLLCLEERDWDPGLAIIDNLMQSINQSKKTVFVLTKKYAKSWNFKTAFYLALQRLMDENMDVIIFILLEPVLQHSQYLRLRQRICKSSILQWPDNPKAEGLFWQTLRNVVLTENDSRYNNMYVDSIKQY
Test readout: pIC50
Entry type: numeric. Quantity: pIC50, the -log10 of concentration in molar units.

Solved entries:
Cc1c(-c2[nH]c3sc(C(=O)N4CC(F)C4)nc3c2C(C)C)cn2ncnc2c1C [Example 379]; 7.64
CNCCNC1CCC(c2nc3c(C(C)C)c(-c4cc(OC)c5ncnn5c4)[nH]c3s2)CC1 (single isomer, unassigned) [Example 170]; 8.33
CCN(C)C1CCC(c2nc3c(C(C)C)c(-c4cc(OC)c5ncnn5c4)[nH]c3s2)CC1 (single isomer, unassigned) [Example 73]; 7.90

get_value(item= Cc1c(-c2[nH]c3sc(C4CCC(NCC(=O)N(C)C)CC4)nc3c2C(C)C)cn2ncnc2c1C (single isomer, unassigned) [Example 205] , readout=pIC50) returns 8.63

get_value(item= Cc1cc(-c2[nH]c3sc(C4CCNCC4)nc3c2C(C)C)cn2ncnc12 [Example 2] , readout=pIC50) returns 8.24

get_value(item= Cc1c(-c2[nH]c3sc(C4CCN(CC(N)=O)CC4)nc3c2C(C)C)cn2ncnc2c1C [Example 58] , readout=pIC50) returns 8.84

get_value(item= Cc1c(-c2[nH]c3sc(C4CCN(CC5CCOCC5)CC4)nc3c2C(C)C)cn2ncnc2c1C [Example 48] , readout=pIC50) returns 8.36
